Property: viability, T/C; scope: individual compounds
# System: 874868-142-R-J2-PDC complex spheroids, growth % test/control
# ASSAY NAME: Anticancer human tumor 874868-142-R-J2-PDC patient-derived head and neck squamous carcinoma cell line growth inhibition [CLK]
# EXPERIMENTAL SETUP: second compound 0.316 µM; first compound 0.0316 µM; hits give low values
READOUT TYPE: viability, T/C (%)

[[record]]
compound = "CCc1c2c(nc3ccc(O)cc13)-c1cc3c(c(=O)n1C2)COC(=O)[C@]3(O)CC + CNC(=O)c1ccc(Nc2nc(OC3CCCC3)c3c(-c4ccc5nc(C)oc5c4)c[nH]c3n2)c(OC)c1"
value_observed = 34.4

[[record]]
compound = "CCN1CCN(Cc2ccc(Nc3ncc(F)c(-c4cc(F)c5nc(C)n(C(C)C)c5c4)n3)nc2)CC1 + CN1CCN(c2cc(C(=O)Nc3cc4cc(-c5cnn(C)c5)ccc4cn3)ccn2)CC1"
value_observed = 25.9

[[record]]
compound = "COC1C=CCC(C)C(C)S(=O)(=O)NC(=O)c2ccc3c(c2)N(CC2CCC21)CC1(CCCc2cc(Cl)ccc21)CO3 (stereo unspecified) + CN1CCN(c2cc(C(=O)Nc3cc4cc(-c5cnn(C)c5)ccc4cn3)ccn2)CC1"
value_observed = 21.6

[[record]]
compound = "Cn1ncnc1[C@H]1c2n[nH]c(=O)c3cc(F)cc(c23)N[C@@H]1c1ccc(F)cc1 + CN1CCN(c2cc(C(=O)Nc3cc4cc(-c5cnn(C)c5)ccc4cn3)ccn2)CC1"
value_observed = 18.8

[[record]]
compound = "CC(=O)O[C@H]1C(=O)[C@@]2(C)[C@H]([C@H](OC(=O)c3ccccc3)[C@]3(O)C[C@H](OC(=O)[C@H](O)[C@@H](NC(=O)c4ccccc4)c4ccccc4)C(C)=C1C3(C)C)[C@]1(OC(C)=O)CO[C@@H]1C[C@@H]2O + CNC(=O)c1ccc(Nc2nc(OC3CCCC3)c3c(-c4ccc5nc(C)oc5c4)c[nH]c3n2)c(OC)c1"
value_observed = 54.3

[[record]]
compound = "CC(=O)O[C@H]1C(=O)[C@@]2(C)[C@H]([C@H](OC(=O)c3ccccc3)[C@]3(O)C[C@H](OC(=O)[C@H](O)[C@@H](NC(=O)c4ccccc4)c4ccccc4)C(C)=C1C3(C)C)[C@]1(OC(C)=O)CO[C@@H]1C[C@@H]2O + CN1CCN(c2cc(C(=O)Nc3cc4cc(-c5cnn(C)c5)ccc4cn3)ccn2)CC1"
value_observed = 13

[[record]]
compound = "COc1cccc2c1C(=O)c1c(O)c3c(c(O)c1C2=O)CC(O)(C(=O)CO)CC3OC1CC(N)C(O)C(C)O1 (stereo unspecified) + CNC(=O)c1ccc(Nc2nc(OC3CCCC3)c3c(-c4ccc5nc(C)oc5c4)c[nH]c3n2)c(OC)c1"
value_observed = 55.9

[[record]]
compound = "CC1COCCN1c1cc(C2(S(C)(=N)=O)CC2)nc(-c2ccnc3[nH]ccc23)n1 (stereo unspecified) + CNC(=O)c1ccc(Nc2nc(OC3CCCC3)c3c(-c4ccc5nc(C)oc5c4)c[nH]c3n2)c(OC)c1"
value_observed = 51.2

[[record]]
compound = "CCCS(=O)(=O)Nc1ccc(F)c(C(=O)c2c[nH]c3ncc(-c4ccc(Cl)cc4)cc23)c1F + CNC(=O)c1ccc(Nc2nc(OC3CCCC3)c3c(-c4ccc5nc(C)oc5c4)c[nH]c3n2)c(OC)c1"
value_observed = 62.2

[[record]]
compound = "COc1ccc([C@@H](O)c2cc(-c3ncnc4cc(N5CCOCC5)ccc34)c(F)cc2Cl)nn1 + CN1CCN(c2cc(C(=O)Nc3cc4cc(-c5cnn(C)c5)ccc4cn3)ccn2)CC1"
value_observed = 17.3

[[record]]
compound = "C=CC(=O)N1CCN(c2nc(=O)n(-c3c(C)ccnc3C(C)C)c3nc(-c4c(O)cccc4F)c(F)cc23)C(C)C1 (stereo unspecified) + CN1CCN(c2cc(C(=O)Nc3cc4cc(-c5cnn(C)c5)ccc4cn3)ccn2)CC1"
value_observed = 16.9

[[record]]
compound = "Nc1ccccc1NC(=O)c1ccc(CNC(=O)OCc2cccnc2)cc1 + CN1CCN(c2cc(C(=O)Nc3cc4cc(-c5cnn(C)c5)ccc4cn3)ccn2)CC1"
value_observed = 13.4

[[record]]
compound = "O=C(c1cc(Cc2n[nH]c(=O)c3ccccc23)ccc1F)N1CCN(C(=O)C2CC2)CC1 + CNC(=O)c1ccc(Nc2nc(OC3CCCC3)c3c(-c4ccc5nc(C)oc5c4)c[nH]c3n2)c(OC)c1"
value_observed = 54

[[record]]
compound = "Nc1ccn(C2OC(CO)C(O)C2(F)F)c(=O)n1 (stereo unspecified) + CN1CCN(c2cc(C(=O)Nc3cc4cc(-c5cnn(C)c5)ccc4cn3)ccn2)CC1"
value_observed = 14.3

[[record]]
compound = "CCCS(=O)(=O)Nc1ccc(F)c(C(=O)c2c[nH]c3ncc(-c4ccc(Cl)cc4)cc23)c1F + CN1CCN(c2cc(C(=O)Nc3cc4cc(-c5cnn(C)c5)ccc4cn3)ccn2)CC1"
value_observed = 21.1

[[record]]
compound = "Cn1ncnc1[C@H]1c2n[nH]c(=O)c3cc(F)cc(c23)N[C@@H]1c1ccc(F)cc1 + CNC(=O)c1ccc(Nc2nc(OC3CCCC3)c3c(-c4ccc5nc(C)oc5c4)c[nH]c3n2)c(OC)c1"
value_observed = 59.7


* * *

Property: viability, T/C; scope: individual molecules
# Test system: 874868-142-R-J2-PDC complex spheroids, growth % test/control
# ASSAY NAME: Anticancer human tumor 874868-142-R-J2-PDC cell line growth inhibition [CLK];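 further: spheroids exposed to the compounds for 7 days; 100% = DMSO vehicle control viability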
# EXPERIMENTAL SETUP: second compound 0.316 µM; first compound 0.1 µM; hits give low values
READOUT TYPE: viability, T/C (%)

[[record]]
molecule = "C=C(F)C(=O)N1CCN(c2nc(OCC3CCCN3C)nc3c2CCN(c2cccc4cccc(Cl)c24)C3)CC1CC#N (stereo not drawn) + CNC(=O)c1ccc(Nc2nc(OC3CCCC3)c3c(-c4ccc5nc(C)oc5c4)c[nH]c3n2)c(OC)c1"
system_tested = "874868-142-R-J2-PDC complex spheroids, growth % test/control"
reading_unit = "%"
value_observed = 49.2

[[record]]
molecule = "CCN1CCN(Cc2ccc(Nc3ncc(F)c(-c4cc(F)c5nc(C)n(C(C)C)c5c4)n3)nc2)CC1 + CNC(=O)c1ccc(Nc2nc(OC3CCCC3)c3c(-c4ccc5nc(C)oc5c4)c[nH]c3n2)c(OC)c1"
system_tested = "874868-142-R-J2-PDC complex spheroids, growth % test/control"
reading_unit = "%"
value_observed = 64.6

[[record]]
molecule = "COc1cccc2c1C(=O)c1c(O)c3c(c(O)c1C2=O)CC(O)(C(=O)CO)CC3OC1CC(N)C(O)C(C)O1 (stereo not drawn) + CNC(=O)c1ccc(Nc2nc(OC3CCCC3)c3c(-c4ccc5nc(C)oc5c4)c[nH]c3n2)c(OC)c1"
system_tested = "874868-142-R-J2-PDC complex spheroids, growth % test/control"
reading_unit = "%"
value_observed = 38.6


* * *

# Tested on: 874868-142-R-J2-PDC complex spheroids, growth % test/control
# ASSAY NAME: Anticancer human tumor 874868-142-R-J2-PDC cell line growth inhibition [CLK]; active = viability on the fitted dose curve at most 10% of control; inactive = the rest;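 further: spheroids exposed to the compounds for 7 days; 100% = DMSO vehicle control viability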
# EXPERIMENTAL SETUP: second compound 10 µM; first compound 10 µM
Classes used: Yes (active), No (inactive)

[[record]]
molecule = "COc1ccc([C@@H](O)c2cc(-c3ncnc4cc(N5CCOCC5)ccc34)c(F)cc2Cl)nn1 + CN1CCN(c2cc(C(=O)Nc3cc4cc(-c5cnn(C)c5)ccc4cn3)ccn2)CC1"
class_label = "Yes"

[[record]]
molecule = "CC(CO)NC(=O)c1cc(-c2ccc(Cl)cc2)nn(-c2cnn(C)c2)c1=O (stereo not drawn) + CN1CCN(c2cc(C(=O)Nc3cc4cc(-c5cnn(C)c5)ccc4cn3)ccn2)CC1"
class_label = "Yes"

[[record]]
molecule = "Nc1ccn(C2OC(CO)C(O)C2(F)F)c(=O)n1 (stereo not drawn) + CNC(=O)c1ccc(Nc2nc(OC3CCCC3)c3c(-c4ccc5nc(C)oc5c4)c[nH]c3n2)c(OC)c1"
class_label = "No"

[[record]]
molecule = "CC(Nc1ccc2c(c1)OCCn1cc(N3C(=O)OCC3C(F)F)nc1-2)C(N)=O (stereo not drawn) + CN1CCN(c2cc(C(=O)Nc3cc4cc(-c5cnn(C)c5)ccc4cn3)ccn2)CC1"
class_label = "Yes"

[[record]]
molecule = "C#Cc1c(F)ccc2cc(O)cc(-c3ncc4c(N5CC6CCC(C5)N6)nc(OCC56CCCN5CC(F)C6)nc4c3F)c12 (stereo not drawn) + CN1CCN(c2cc(C(=O)Nc3cc4cc(-c5cnn(C)c5)ccc4cn3)ccn2)CC1"
class_label = "Yes"

[[record]]
molecule = "Nc1ccccc1NC(=O)c1ccc(CNC(=O)OCc2cccnc2)cc1 + CNC(=O)c1ccc(Nc2nc(OC3CCCC3)c3c(-c4ccc5nc(C)oc5c4)c[nH]c3n2)c(OC)c1"
class_label = "Yes"

[[record]]
molecule = "CC1(C)CCC(CN2CCN(c3ccc(C(=O)NS(=O)(=O)c4ccc(NCC5CCOCC5)c([N+](=O)[O-])c4)c(Oc4cnc5[nH]ccc5c4)c3)CC2)=C(c2ccc(Cl)cc2)C1 + CN1CCN(c2cc(C(=O)Nc3cc4cc(-c5cnn(C)c5)ccc4cn3)ccn2)CC1"
class_label = "Yes"

[[record]]
molecule = "COc1cccc2c1C(=O)c1c(O)c3c(c(O)c1C2=O)CC(O)(C(=O)CO)CC3OC1CC(N)C(O)C(C)O1 (stereo not drawn) + CNC(=O)c1ccc(Nc2nc(OC3CCCC3)c3c(-c4ccc5nc(C)oc5c4)c[nH]c3n2)c(OC)c1"
class_label = "Yes"

